assay: NCI Yeast Anticancer Drug Screen. Data for the cln2 rad14 strain (AID 165);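 note: 0% = growth equal to vehicle treated cultures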; settings: S. cerevisiae cln2 rad14 strain, at 50.0 µM, stronger effect = higher value
About 79,000 compounds went through this panel and 15% of them were active in at least one assay; those are over-represented in the sample as a whole.
Mark Yes for reported growth inhibition of -20% or greater; mark No for anything smaller.

Sample answers from the record:
| molecule | qualitativeLabel |
| --- | --- |
| CNc1ccc([N+](=O)[O-])cn1 | Yes |
| CCCCC(C(N)=O)C(C)(C)C(=O)O (stereo unspecified) | No |
| CN1CCc2nc(N)nc(-c3nc(N)nc4c3CN(C)CC4)c2C1 | Yes |
| COC(=O)C(Cc1nc2ccccc2[nH]c1=O)C(=O)C(=O)Nc1ccc(OC)cc1[N+](=O)[O-] (stereo unspecified) | No |
| C/C(=N\Nc1ccc([N+](=O)[O-])cc1)C(=O)N(C)Nc1ccccc1 | Yes |

Exercise: Item "Cc1cc(=O)n2nc(SCc3ccccc3)sc2n1" with growth inhibition of -20% or above?
Key: Yes

---

assay: NCI Yeast Anticancer Drug Screen. Data for the mec2-1 strain (AID 157); settings: S. cerevisiae mec2-1 strain, at 50.0 µM, stronger effect = higher value
The panel holds about 79,000 compounds, 15% with a hit somewhere; the sample as a whole holds those more often.
Listing: growth inhibition of selected molecules
Field: numeric (%). Do not append units.

Exercise: Give the measured growth inhibition of "CC(=O)NCCCCN(CCCNC(C)=O)C(=O)CNS(=O)(=O)c1cccc2c(N(C)C)cccc12" .
Key: -17.1

Exercise: What value of growth inhibition has been recorded for this entry: O=C(NN1C(=O)C(Cl)C1c1cccc(O)c1)c1ccccc1O (stereo unspecified)
Key: -34

Exercise: Need growth inhibition, item CC(CN(C)C)C(=O)c1ccccc1C(=O)O (stereo unspecified)
Key: -24.9

Exercise: # input molecule: C/C(=C\c1ccccc1)C(=O)C1C(c2ccccc2)CC(=O)C(C)C1c1ccccc1 (stereo unspecified) ; wanted: its growth inhibition
Key: -11.7

Exercise: State the recorded growth inhibition for this entry: CC1COC(C(C)c2ccccc2)O1 (stereo unspecified)
Key: -18.4

Exercise: # lookup: growth inhibition of "Oc1ccc2ccccc2c1/C=N\Sc1ccc(Br)cc1"
Key: 37.5

---

test: NCI Yeast Anticancer Drug Screen. Data for the rad50 strain (AID 155);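 note: 0% = growth of vehicle-only cultures of the same strain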; conditions: S. cerevisiae rad50 strain growth inhibition; at 50.0 µM; stronger effect = higher value
This is part of a sample that, as a whole, favours compounds with a hit. Of some 79,000 tested, about 15% had one in any assay.
propertyLabel: growth inhibition (%)
Please respond with the number in % and leave the unit unwritten.

| molecule | propertyLabel | unitsLabel | dataValue |
| --- | --- | --- | --- |
| Cc1nc2ccccc2nc1N1CCCC1 | growth inhibition | % | -6.2 |

Exercise: Request the reported growth inhibition associated with NC(CCC(F)(F)F)C(=O)O (stereo not drawn)
Key: -4.1

Exercise: Which value of growth inhibition has been reported for O=C(O)CC(c1ccccc1Cl)C(CC(=O)O)c1ccccc1Cl (stereo not drawn) in the records?
Key: 5.55

---

assay: NCI Yeast Anticancer Drug Screen. Data for the mec2-1 strain (AID 157); details: S. cerevisiae mec2-1 strain, at 50.0 µM
This is part of a sample that, as a whole, favours compounds with a hit. Of some 79,000 tested, about 15% had one in any assay. Calls of active or inactive are those of the source. Cut-off read from the data, not from the text of the source: active = growth inhibition above about 70%; inactive = the rest.
// classify into active, inactive

Below, 4 compounds whose answers are already recorded.
| compound | qualitativeLabel |
| --- | --- |
| O=[N+]([O-])/C=C/c1cn(CCCCCn2cc(/C=C/[N+](=O)[O-])c3ccccc32)c2ccccc12 | inactive |
| CSC(=S)S(=O)(=O)C12CC3CC(CC(C3)C1)C2 | active |
| COc1nc(NC2OC(CO)C(O)C(O)C2O)c(Br)c(=O)n1C (stereo not given) | inactive |
| COC(=O)C1CCc2ccccc2C1=O (stereo not given) | inactive |

Next item in the queue.
Exercise: Field: outcome | Entry: CCSC(SCC)C(NC(C)=O)C(OC(C)=O)C(OC(C)=O)C(COC(C)=O)OC(C)=O (stereo not given)
Key: inactive

---

assay: NCI Yeast Anticancer Drug Screen. Data for the mlh1 rad18 strain (AID 175); settings: S. cerevisiae mlh1 rad18 strain growth inhibition; at 50.0 µM; stronger effect = higher value
This is part of a sample that, as a whole, favours compounds with a hit. Of some 79,000 tested, about 15% had one in any assay.
propertyLabel: growth inhibition (%)
Write the value in % as a bare number.

Exercise: Which value of growth inhibition has been reported for "Nc1nc(N)c2nc3c(nc2n1)C(=O)N(c1ccc(C(=O)O)cc1)C3" in the records?
Key: 23.2

---

experiment: NCI Yeast Anticancer Drug Screen. Data for the mlh1 rad18 strain (AID 175); details: S. cerevisiae mlh1 rad18 strain growth inhibition; at 50.0 µM; stronger effect = higher value
Compounds without any hit were thinned out: in the full panel of roughly 79,000, 15% have a hit. Activity calls are given as the source filed them. Cut-off read from the data, not from the text of the source: active = growth inhibition above about 70%; inactive = the rest.
propertyLabel: growth inhibition

In the examples that follow, each entry is paired with its recorded growth inhibition.
| compound | dataValue |
| --- | --- |
| COC(=O)C(=O)c1c(-c2ccc(O)c(OC)c2)[nH]c2[nH]n(-c3ccccc3)c(=O)c2c1=O | 14.5% (inactive) |
| O=[N+]([O-])c1ccc(N=C/C=C/Nc2ccc([N+](=O)[O-])cc2)cc1 | 20.8% (inactive) |
| CCOC(=O)C(C#N)C1=CC(=O)C(=O)c2ccc(O)cc21 (stereo not given) | 0.45% (inactive) |
| COc1ccc(/C=C2\N=C(SC)NC2=O)cc1 | -24.9% (inactive) |
| C/C(=C\c1ccccc1)c1ccccc1 | 8.45% (inactive) |

Exercise: Fill in the blank: the reported growth inhibition of "Cc1cc(O)ccc1N=Nc1ccc(S(=O)(=O)O)cc1" is ____.
Key: -12.5% (inactive)

Exercise: Recorded growth inhibition for COc1cc(O)c2c(c1)C(=O)c1cc3c(c(O)c1C2=O)C(O)C(OC)C(C)(O)C3O (stereo not given) , please?
Key: 68.2% (inactive)

Exercise: Return reported growth inhibition; argument: "COc1ccc(-c2nc(N3CCCC3)no2)cc1"
Key: -20.9% (inactive)

Exercise: Param item = "Nc1ccc(N=Nc2ccc(C(=O)O)cc2)cc1" ; retrieve measured growth inhibition.
Key: -7.6% (inactive)

Exercise: // lookup growth inhibition for "COc1cccc2c1c1ccc3c(c1n2C)C(=O)C=CC3=O"
Key: 20.6% (inactive)

Exercise: Recorded growth inhibition of "N#CCCN(CCC#N)c1ccc(/C=C2\N=C(c3cc([N+](=O)[O-])ccc3Cl)N(S(=O)(=O)c3ccccc3)C2=O)cc1" , please.
Key: 28.1% (inactive)

Exercise: // lookup growth inhibition for "Cn1ccc(=O)c2ccccc21"
Key: 1.9% (inactive)

Exercise: Field request: growth inhibition | item: C1CC2CC1CC2C1CO1 (stereo not given)
Key: 4.7% (inactive)

---

Test: NCI Yeast Anticancer Drug Screen. Data for the cln2 rad14 strain (AID 165);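 note: 0% = growth equal to vehicle treated cultures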
Conditions: S. cerevisiae cln2 rad14 strain, at 50.0 µM, stronger effect = higher value
Procedure: Growth inhibition of yeast strains with defined genetic alterations is measured as a screen for potential anti-cancer activity. Selected strains with alterations in DNA damage repair or cell cycle control were exposed to compounds and growth inhibition was measured relative to vehicle treated controls. The strain used in this assay is cln2 rad14
This is part of a sample that, as a whole, favours compounds with a hit. Of some 79,000 tested, about 15% had one in any assay.
Catalogue of molecules with associated growth inhibition
Express your answer in %, writing the number without its unit.

Exercise: What does the record list as growth inhibition for CC(O)/C=C/c1ccccc1O (configuration not stated) ?
Key: -41.5

Exercise: Quick one: growth inhibition of CC(N)C(=O)NC(C(=O)NC1C(O)OC(CO)C(O)C1O)C(C)C (configuration not stated) ?
Key: 7.95

Exercise: # growth inhibition lookup, item COC(=O)CCc1cc(=O)oc2c3c(cc(OC)c12)OC1OC(=O)CC31 (configuration not stated)
Key: 6.4

Exercise: Reported growth inhibition for S=C(N/N=C/c1ccc(Cl)cc1Cl)NC1CCc2ccccc21 (configuration not stated) : what is it?
Key: -33.8

Exercise: Reported growth inhibition, molecule "CN(C)c1nc(-c2ccccc2)c(Cc2ccccc2)c(=O)o1" : ____
Key: -4.25

---

experiment: NCI Yeast Anticancer Drug Screen. Data for the sgs1 mgt1 strain (AID 161);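 note: 0% = growth of cultures given vehicle only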; conditions: S. cerevisiae sgs1 mgt1 strain, at 50.0 µM, stronger effect = higher value
This is part of a sample that, as a whole, favours compounds with a hit. Of some 79,000 tested, about 15% had one in any assay.
propertyLabel: growth inhibition (%)
Quick reminder: number only, in %, skip the unit.

Worked examples follow.
| molecule | unitsLabel | growth inhibition |
| --- | --- | --- |
| Oc1ccc(O)c(-n2cccn2)c1-n1cccn1 | % | -1.6 |
| Cc1ccc(S(=O)(=O)/N=[N+](\[O-])c2ccc(N(C)C)cc2)cc1 | % | -7.55 |
| CC1(C)OC2C(COCc3ccccc3)=CC(n3ccc(=O)[nH]c3=O)C2O1 (stereo unspecified) | % | 1.7 |
| CC(N)C(c1ccccc1)c1ccccc1 (stereo unspecified) | % | 7.15 |
| SCc1ccc(CS)s1 | % | -1.65 |

Now consider a different molecule.
Exercise: Fill blank: measured growth inhibition of the molecule CC(=O)Nc1ccc(C(=O)NN2C(=O)C(Cl)C2c2ccccc2O)cc1 (stereo unspecified) is ____.
Key: -45.9
